test system: Poliovirus 2; assay: In vitro anti-picornavirus activity against Poliovirus type-2.; format: functional; conditions: Enterovirus C
PROPERTY: MIC (µg/mL)
Unit µg/mL implied. Number only.

Past entries and their recorded results:
Cc1cc(CCCCCCCOc2ccc(C(=O)OC(C)(C)C)cc2)on1 ... 1.2
Cc1cc(CCCCCCCOc2ccccc2)on1 ... 1.7
CC(=O)c1ccc(OCCCCCCCc2cc(C)no2)cc1 ... 0.01

Ask: Fill in: MIC of `COc1ccc(OCCCCCCCCc2cc(C)no2)c(Cl)c1` is ___
Result: 0.65

Ask: Query: MIC; subject: `CCc1noc(CC)c1CCCCCCOc1ccc(OC)cc1[N+](=O)[O-]`
Result: 1.5

Ask: Which MIC value belongs to `Cc1cc(CCCCCCCOc2ccc([N+](=O)[O-])cc2)on1` ?
Result: 1.5

Ask: Item `Cc1cc(CCCCCCCOc2ccc(C(=O)N(C)C)cc2)on1` has what recorded MIC?
Result: 2.5

Ask: I would be grateful if you could share the reported MIC for `COc1ccc(OCCCCCCCc2cc(C)no2)c([N+](=O)[O-])c1` .
Result: 0.2
